Source listed as ChEMBL document CHEMBL1961873.

molecular target: MAP/microtubule affinity-regulating kinase 3 (Homo sapiens); settings: at 1 µM;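 also: reported values are averaged percent inhibition of MARK3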
Measured property: inhibition (%)
Write the answer as a number in %, unit excluded.

Query `O=C1Nc2ccc(-c3cccnc3)cc2C1=Cc1cc(Br)c(O)c(Br)c1` on MAP/microtubule affinity-regulating kinase 3 (Homo sapiens); inhibition returned: 6.43

Query `ON=C1CCc2cc(-c3nc(C4CCNCC4)[nH]c3-c3ccncc3)ccc21` on MAP/microtubule affinity-regulating kinase 3 (Homo sapiens); inhibition returned: 3.01

Query `CCS(=O)(=O)c1ccc(OC)c(Nc2nccc(N(C)c3ccc4c(C)n[nH]c4c3)n2)c1` on MAP/microtubule affinity-regulating kinase 3 (Homo sapiens); inhibition returned: 3.79

Query `COc1cc(Nc2nccc(-c3cnn4ncccc34)n2)cc(OC)c1` on MAP/microtubule affinity-regulating kinase 3 (Homo sapiens); inhibition returned: 34.1

Query `Cc1ccc2c(-c3ccnc(Nc4cccc(C(F)(F)F)c4)n3)c(-c3ccccc3)nn2n1` on MAP/microtubule affinity-regulating kinase 3 (Homo sapiens); inhibition returned: 3.93

Query `COc1cccc(-n2ncc3c(N/N=C/c4ccc(C)cc4)ncnc32)c1` on MAP/microtubule affinity-regulating kinase 3 (Homo sapiens); inhibition returned: 6.9

Query `Nc1ccc(C#Cc2cncnc2Nc2ccc(OCc3cccc(F)c3)c(Cl)c2)cc1` on MAP/microtubule affinity-regulating kinase 3 (Homo sapiens); inhibition returned: 2.52

Query `CCOc1nccc2c1nc(-c1nonc1N)n2CC` on MAP/microtubule affinity-regulating kinase 3 (Homo sapiens); inhibition returned: 9.66

Query `O=C1Nc2ccccc2/C1=C/Nc1ccc2[nH]c(=O)[nH]c2c1` on MAP/microtubule affinity-regulating kinase 3 (Homo sapiens); inhibition returned: 27.5

Query `NS(=O)(=O)c1cccc(Nc2cc(-c3ccc(F)cc3)n[nH]2)c1` on MAP/microtubule affinity-regulating kinase 3 (Homo sapiens); inhibition returned: 19

Query `CCn1c(-c2nonc2N)nc2c(C#CC(C)(C)O)nc(OCCNC)cc21` on MAP/microtubule affinity-regulating kinase 3 (Homo sapiens); inhibition returned: 11.6

Query `COc1cc2ncnc(Nc3ccc4c(cnn4Cc4ccccc4)c3)c2cc1OC` on MAP/microtubule affinity-regulating kinase 3 (Homo sapiens); inhibition returned: 2.6

Query `Cc1ccc(NC(=O)CC2CC2)cc1-c1ccc(C(=O)NCC2CC2)cc1` on MAP/microtubule affinity-regulating kinase 3 (Homo sapiens); inhibition returned: 1.71

Query `CS(=O)(=O)CCNCc1nc(-c2ccc3ncnc(Nc4ccc(OCc5cccc(C(F)(F)F)c5)cc4)c3c2)cs1` on MAP/microtubule affinity-regulating kinase 3 (Homo sapiens); inhibition returned: 1.92

Query `C[C@@H](Oc1cc(-n2cnc3ccc(OCC4CCN(C)CC4)cc32)sc1C(N)=O)c1ccccc1C(F)(F)F` on MAP/microtubule affinity-regulating kinase 3 (Homo sapiens); inhibition returned: 57.6

Query `CCn1c(-c2nonc2N)nc2ccc(F)cc21` on MAP/microtubule affinity-regulating kinase 3 (Homo sapiens); inhibition returned: 3.73

Query `O=C(Nc1ccc(Oc2ccc3[nH]c(NC(=O)c4ccco4)nc3c2)cc1)Nc1cc(C(F)(F)F)ccc1F` on MAP/microtubule affinity-regulating kinase 3 (Homo sapiens); inhibition returned: -0.23

Query `NS(=O)(=O)c1ccc(N/N=C2\C(=O)Nc3ccc(Cl)cc32)cc1` on MAP/microtubule affinity-regulating kinase 3 (Homo sapiens); inhibition returned: 13.2

Query `CCS(=O)(=O)c1ccc(OC)c(Nc2ncc(-c3cccc(OC)c3)o2)c1` on MAP/microtubule affinity-regulating kinase 3 (Homo sapiens); inhibition returned: 2.05

Query `CC(C)c1ccc(Nc2nccc(-c3cnn4ncccc34)n2)cc1` on MAP/microtubule affinity-regulating kinase 3 (Homo sapiens); inhibition returned: 3.95

Query `CN(C)CCCn1c(-c2nonc2N)nc2cnccc21` on MAP/microtubule affinity-regulating kinase 3 (Homo sapiens); inhibition returned: 3.45

Query `COC(=O)c1cncc(/C=C/c2c(C)cc(O)cc2C)c1` on MAP/microtubule affinity-regulating kinase 3 (Homo sapiens); inhibition returned: 2.01

Query `N#Cc1cccc(Nc2nccc(-c3cnn4ncccc34)n2)c1` on MAP/microtubule affinity-regulating kinase 3 (Homo sapiens); inhibition returned: 13.1

Query `Cc1ccc2c(c1)/C(=N/Nc1ccc(S(N)(=O)=O)cc1)C(=O)N2` on MAP/microtubule affinity-regulating kinase 3 (Homo sapiens); inhibition returned: 3.82

Query `OCc1ccc(-c2nc(-c3ccccn3)c(-c3ccc4c(c3)OCO4)[nH]2)cc1` on MAP/microtubule affinity-regulating kinase 3 (Homo sapiens); inhibition returned: 4.42

Query `CN(c1ccc(NC(=O)Nc2ccc(OC(F)(F)F)cc2)cc1)c1ccnc(Nc2cccc(S(N)(=O)=O)c2)n1` on MAP/microtubule affinity-regulating kinase 3 (Homo sapiens); inhibition returned: -0.68

Query `Cc1cc(-c2ccccn2)cc(C)c1/C=C/c1cncc(-c2nn[nH]n2)c1` on MAP/microtubule affinity-regulating kinase 3 (Homo sapiens); inhibition returned: 7.09

Query `NC(=O)c1cccc(Nc2nccc(Nc3cccc(F)c3)n2)c1` on MAP/microtubule affinity-regulating kinase 3 (Homo sapiens); inhibition returned: 2.35

Query `Nc1nccc(-c2c(-c3ccc(F)cc3)ncn2CCCN2CCOCC2)n1` on MAP/microtubule affinity-regulating kinase 3 (Homo sapiens); inhibition returned: 8.72

Query `Cc1ccc2c(-c3ccnc(Nc4ccc5c(c4)OCCO5)n3)c(-c3ccc(C(F)(F)F)cc3)nn2n1` on MAP/microtubule affinity-regulating kinase 3 (Homo sapiens); inhibition returned: 5.36

Query `O=S(=O)(CCOCc1ccc(-c2ccc3ncnc(Nc4ccc(OCc5cccc(F)c5)c(Cl)c4)c3c2)o1)c1ccccc1` on MAP/microtubule affinity-regulating kinase 3 (Homo sapiens); inhibition returned: 1.33

Query `Cc1ccc(Nc2ccnc(Nc3cccc(C(N)=O)c3)n2)cc1O` on MAP/microtubule affinity-regulating kinase 3 (Homo sapiens); inhibition returned: 12.5

Query `CN(C)C(=O)O[C@H]1CN[C@H](C#Cc2cc3ncnc(Nc4ccc(OCc5cccc(F)c5)c(Cl)c4)c3s2)C1` on MAP/microtubule affinity-regulating kinase 3 (Homo sapiens); inhibition returned: 3.81

Query `Cc1nc(-c2ccccc2)n2nc(NCCCN3CCOCC3)ncc12` on MAP/microtubule affinity-regulating kinase 3 (Homo sapiens); inhibition returned: 4.15

Query `CN(C)c1cc2c(Nc3ccc4c(cnn4Cc4ccccc4)c3)ncnc2cn1` on MAP/microtubule affinity-regulating kinase 3 (Homo sapiens); inhibition returned: -0.35

Query `C[C@@H](Oc1cc(-n2cnc3ccc(OC[C@@H](O)CO)cc32)sc1C(N)=O)c1ccccc1Cl` on MAP/microtubule affinity-regulating kinase 3 (Homo sapiens); inhibition returned: 5.81

Query `COc1cccc(-n2ncc3c(N/N=C/c4ccc(S(C)(=O)=O)cc4)ncnc32)c1` on MAP/microtubule affinity-regulating kinase 3 (Homo sapiens); inhibition returned: 4.26

Query `CN1CCN(C(=O)c2ccc(NC(=O)Nc3ccc(N(C)c4ccnc(Nc5ccc(CS(C)(=O)=O)cc5)n4)cc3)cc2)CC1` on MAP/microtubule affinity-regulating kinase 3 (Homo sapiens); inhibition returned: 20.3
